Record form. Attribute: TGI. Fill in for each entry.
Test system: M14 melanoma
measurement description: NCI tumour cell line growth inhibition, 48 h

Inquiry: Field: TGI (M14 melanoma). Entry: COc1cc(OC(C)=O)cc2c(OC(C)=O)ccc(OC(C)=O)c12
Reply text: > 100 µM

Inquiry: Look up TGI with M14 melanoma for this compound: CC[C@H]1C=CCC[C@@]2(C[C@@H]3CC[C@@H]4[C@H](C(=O)OCCCCCCCCCCCCCCCC(=O)O)[C@]5(CCC[C@@H](C)O5)NC(=[N+]34)N2)O1
Reply text: 0.212 µM

Inquiry: Lab request: please report TGI under test system M14 melanoma for CCN(CC)CC(C)Nc1ccc([N+](=O)[O-])c2sc3ccccc3c(=O)c12 (stereo not given)
Reply text: 4.03 µM

Inquiry: State its TGI on M14 melanoma: N#CCc1nc2ccccc2c(=O)[nH]1
Reply text: > 100 µM

Inquiry: Request - read-out TGI | tested on M14 melanoma | compound CC1CNc2ccccc2N=C1NN (stereo not given)
Reply text: > 100 µM

Inquiry: Short answer please: TGI, M14 melanoma, entry Nc1ncnc2ccc(Sc3ccc4ncnc(N)c4c3)cc12
Reply text: > 100 µM

Inquiry: What measured TGI is associated with CCCCC(CC)CN=C(N)NC(N)=NCCCCCCN=C(N)NC(N)=NCC(CC)CCCC (stereo not given) on M14 melanoma?
Reply text: 6.03 µM

Inquiry: M14 melanoma / TGI / Cc1c(/C=N/NC(=O)c2cc(Br)cc(Br)c2O)c(=O)n(-c2ccccc2)n1C : value?
Reply text: > 100 µM

Inquiry: Could you share what TGI was measured for O=[N+]([O-])c1ccc(-c2csc3nc(-c4ccccc4)nn23)cc1 , tested on M14 melanoma?
Reply text: > 100 µM

Inquiry: # returns recorded TGI (system: M14 melanoma) for COC(=O)c1ccccc1CC1Cc2ccc3c(c2C1=O)CCC3 (stereo not given)
Reply text: > 100 µM

Inquiry: Observed TGI on M14 melanoma for COc1ccc(OC)c(NC(=O)C2=C(C)NC(C)=C(C(=O)Nc3cc(OC)ccc3OC)C2c2ccccc2)c1 , please.
Reply text: > 100 µM

Inquiry: Missing value: TGI, M14 melanoma, entry COc1ccc(C2=Nc3ccccc3NC(=O)C2)cc1 . Fill in?
Reply text: > 100 µM

Inquiry: Form field - read-out: TGI; system: M14 melanoma; submitted item: CCOC(=O)N(Cc1cccs1)c1cc(OC)c(OC)c(OC)c1
Reply text: > 100 µM

Inquiry: // map NCCOCCOCCNc1nc(Cc2ccccc2)nc(NCCCN2CCCC2=O)n1 to recorded TGI (system: M14 melanoma)
Reply text: > 100 µM

Inquiry: Item: Cc1ccc(NC(=O)C(=O)C(C#N)c2ccccc2C)cc1C (stereo not given) Test system: M14 melanoma Read-out: TGI Value: ?
Reply text: > 100 µM

Inquiry: Fill in the recorded TGI for this compound, with M14 melanoma as test system: C=CCOc1ccc(/C(N=Nc2ccc(Cl)cc2)=N/NC(=O)c2ccccc2)cc1OC
Reply text: > 100 µM

Inquiry: Identify the measured TGI of CC[C@@H](C(=O)O)C1CC[C@H](C)C([C@@H](C)[C@H](O)[C@H](C)C(=O)[C@H](CC)C2O[C@]3(C=C[C@@H](O)[C@]4(CC[C@@](C)(C5CC[C@](O)(CC)[C@H](C)O5)O4)O3)[C@H](C)C[C@@H]2C)O1 (stereo not given in full) for M14 melanoma.
Reply text: 2.82 µM

Inquiry: GET /values?readout=TGI&system=M14 melanoma&item= CC(=O)OCC1OC(OC2C(CSC3OC(COC(C)=O)C(OC(C)=O)C(OC(C)=O)C3OC(C)=O)OC(OC(C)=O)C(OC(C)=O)C2OC(C)=O)C(OC(C)=O)C(OC(C)=O)C1OC(C)=O (stereo not given)
Reply text: > 100 µM

Inquiry: // lookup TGI | system=M14 melanoma | key= NC(=O)N/N=C1\CCCCc2ccccc21
Reply text: > 10 µM

Inquiry: So what TGI did COc1cccc(-n2ncc3c(N/N=C/c4ccc(C(=O)NCCN(C)C)cc4)ncnc32)c1 get with M14 melanoma?
Reply text: 5.55 µM

Inquiry: Form field - read-out: TGI; system: M14 melanoma; submitted item: O=C1CC(c2ccc(O)cc2)C2(O1)C(=O)OC(C(O)CO)C2O (stereo not given)
Reply text: > 100 µM

Inquiry: Hi! What's the reported TGI for CSc1ccc(C2OC(=O)c3ccccc32)c2ccccc12 (stereo not given) on M14 melanoma?
Reply text: > 100 µM

Inquiry: Notebook: pull reported TGI for M14 melanoma, entry Cc1cc(N(CCC#N)CCC#N)ccc1N=Nc1cccc(C(=O)O)c1
Reply text: > 100 µM

Inquiry: // map CCNCCNc1c2ccccc2nc2ccccc12 to recorded TGI (system: M14 melanoma)
Reply text: 3.05 µM

Inquiry: Form field - read-out: TGI; system: M14 melanoma; submitted item: O=S(=O)(O)c1ccc(O)c2ncc(Cl)cc12
Reply text: > 100 µM

Inquiry: Which TGI is reported with M14 melanoma for this entry: COc1ccc2sc3c(NCCCN(C)C)nc4ccccc4c3c(=O)c2c1 ?
Reply text: 3.33 µM

Inquiry: // map COc1cc(/C=C/c2cc(O)c3cc(C(C)=O)c(=O)oc3c2)cc2c1O[C@]1(C)CC[C@@H](O)C(C)(C)[C@H]1C2 to recorded TGI (system: M14 melanoma)
Reply text: > 20.2 µM

Inquiry: # value lookup — system M14 melanoma, readout TGI, item O=[N+]([O-])c1ccc(-c2nnc(C34CC5CC(CC(C5)C3)C4)o2)cc1
Reply text: > 100 µM

Inquiry: Enter reported TGI observed with M14 melanoma for COc1cc(C=C2C(C)=NN(c3cccc(Cl)c3)C23SCC(=O)N3c2nc3ccccc3s2)ccc1O (stereo not given)
Reply text: > 100 µM

Inquiry: Request: TGI, test system M14 melanoma, entry C=CCOc1cccc(/C=C2\SC(=Nc3ccc(O)cc3)NC2=O)c1
Reply text: 22.9 µM

Inquiry: Entry CCOC(=O)C(=[N+]=[N-])C(=O)C1(C(=O)OCC)CCN(C(=O)c2ccccc2)C1=O (stereo not given) , system M14 melanoma: what TGI was measured?
Reply text: > 100 µM

Inquiry: Form field - read-out: TGI; system: M14 melanoma; submitted item: C[C@H](OCc1ccccc1)C(=O)N1CCS(=O)(=O)N2CCC[C@H]2C1=O
Reply text: > 100 µM

Inquiry: Given the entry NC1CC(=O)c2sc(I)cc21 (stereo not given) , what TGI was observed with M14 melanoma?
Reply text: > 100 µM

Inquiry: Form field - read-out: TGI; system: M14 melanoma; submitted item: COc1ccc(-c2ccc(/C=N/n3c(COc4ccc(Cl)cc4Cl)nn(CN4CCOCC4)c3=S)o2)c([N+](=O)[O-])c1
Reply text: 72.6 µM

Inquiry: Given the entry COc1ccc(-c2n/c(=C\c3c(O)[nH]c4ccc(OC)cc34)cc3c2=Nc2ccccc2-3)cc1 , what TGI was observed with M14 melanoma?
Reply text: 3.59 µM

Inquiry: Item CCN(CC)CSc1nc2ccccc2s1 with M14 melanoma - TGI?
Reply text: > 100 µM

Inquiry: Lab note: need TGI for C/C(=N\NS(=O)(=O)c1ccccc1)c1ccc(Cl)c(Cl)c1 on M14 melanoma, anyone have it?
Reply text: > 100 µM

Inquiry: Any idea what TGI came out for O=C(CCCCCCC(=O)Nc1ccc(N(CCCl)CCCl)cc1)NO on M14 melanoma?
Reply text: 10.7 µM

Inquiry: Recall the recorded TGI for Cc1csc(=S)n1OC(=O)NC1CCCCC1 with M14 melanoma and state it.
Reply text: > 100 µM

Inquiry: Param readout= TGI; system= M14 melanoma; entry= COc1ccc(-c2nc3sc4c(c3c(=O)[nH]2)CCCCCC4)cc1 ; returns value.
Reply text: > 33.2 µM
